- Tested on: KYSE-410 (Esophageal Squamous Cell Carcinoma);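 further: after 72 h of two-drug dosing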
- experiment: Bliss excess, mean over the matrix (fraction); higher = more synergy
measured.property: Bliss excess

{"columns": ["compound", "measured.property", "value.reported"],
 "data": [
  ["COc1nnc2ccc(N3CCC(c4ccc(OCCN5CCN(C)C(=O)[C@H]5C)cc4)CC3)nn12 [AZD5153] + Cn1cnc2c(F)c(Nc3ccc(Br)cc3Cl)c(C(=O)NOCCO)cc21 [Selumetinib] (first compound max 1 µM, 7x7, partner max 10 µM)", "Bliss excess", -0.0784],
  ["CN(CCO)CC[C@H](CSc1ccccc1)Nc1ccc(S(=O)(=O)NC(=O)c2ccc(N3CCC([C@@H](O)c4ccccc4-c4ccc(Cl)cc4)CC3)cc2)cc1S(=O)(=O)C(F)(F)F [AZD4320] + C[C@@H]1COCCN1C2=NC(=NC(=C2)C3(CC3)[S@](=N)(=O)C)C4=C5C=CNC5=NC=C4 [AZD6738] (first compound max 1 µM, 7x7, partner max 10 µM)", "Bliss excess", -0.0723],
  ["C[C@@H](c1ccc2nccn2c1)n1nnc2ncc(-c3cnn(C)c3)nc21 [Savolitinib] + Cc1c2c(nn1C)CSCc1cc(n(C)n1)CSc1cc(c3ccccc3c1)OCCCc1c(C(=O)O)n(C)c3c-2c(Cl)ccc13 [AZD5991] (first compound max 1 µM, 7x7, partner max 1 µM)", "Bliss excess", -0.0749]
]}

----------
- Test system: MDA-MB-468 (Breast Carcinoma)
- experiment: combination Emax (second highest fraction inhibited in the dose matrix, 72 h); higher = more inhibition; extreme values may be limits of the assay
Rule: combination Emax of 0.7 or more gives true (1); anything lower gives false (0).

{"columns": ["compound", "system.name", "assigned.label"],
 "data": [
  ["CS(=O)(=O)CCNCc1ccc(-c2ccc3ncnc(Nc4ccc(OCc5cccc(F)c5)c(Cl)c4)c3c2)o1 [Lapatinib] + NC1(c2ccc(-c3nc4ccn5c(=O)[nH]nc5c4cc3-c3ccccc3)cc2)CCC1 [MK-2206] (first compound max 10 µM, 7x7, partner max 10 µM)", "MDA-MB-468 (Breast Carcinoma)", "true (1)"],
  ["Cc1c2c(nn1C)CSCc1cc(n(C)n1)CSc1cc(c3ccccc3c1)OCCCc1c(C(=O)O)n(C)c3c-2c(Cl)ccc13 [AZD5991] + CCN(CCO)CCCOc1ccc2c(Nc3cc(CC(=O)Nc4cccc(F)c4)[nH]n3)ncnc2c1 [AZD2811] (first compound max 1 µM, 7x7, partner max 1 µM)", "MDA-MB-468 (Breast Carcinoma)", "true (1)"],
  ["C[C@@H](Oc1cc(-c2cnn(C3CCNCC3)c2)cnc1N)c1c(Cl)ccc(F)c1Cl [Crizotinib] + CC1=C(C(=CC=C1)Cl)NC(=O)C2=CN=C(S2)NC3=CC(=NC(=N3)C)N4CCN(CC4)CCO [Dasatinib] (first compound max 10 µM, 7x7, partner max 2 µM)", "MDA-MB-468 (Breast Carcinoma)", "true (1)"],
  ["Cc1nc(Nc2ncc(C(=O)Nc3c(C)cccc3Cl)s2)cc(N2CCN(CCO)CC2)n1 [Dasatinib] + CC(=O)Nc1cccc(-n2c(=O)n(C3CC3)c(=O)c3c(Nc4ccc(I)cc4F)n(C)c(=O)c(C)c32)c1 [Trametinib] (first compound max 2 µM, 7x7, partner max 1 µM)", "MDA-MB-468 (Breast Carcinoma)", "false (0)"],
  ["CN(C)CCCOc1ccc(-c2ccc3ncc4c(c3c2)n(C2CCOCC2)c(=O)n4C)cn1 [AZD0156] + CCN(CCO)CCCOc1ccc2c(Nc3cc(CC(=O)Nc4cccc(F)c4)[nH]n3)ncnc2c1 [AZD2811] (first compound max 1 µM, 7x7, partner max 1 µM)", "MDA-MB-468 (Breast Carcinoma)", "false (0)"],
  ["Cc1nc(-c2cn3c(n2)-c2ccc(-c4cnn(C(C)(C)C(N)=O)c4)cc2OCC3)n(C(C)C)n1 [Taselisib] + O=C(Nc1ccc2[nH]nc(-c3ccncc3)c2c1)[C@@H]1CCN(CC(=O)N2CCN(c3ccc(-c4ncccn4)cc3)CC2)C1 [SCH772984] (first compound max 10 µM, 7x7, partner max 5 µM)", "MDA-MB-468 (Breast Carcinoma)", "true (1)"]
]}

Value source: the supplement of paper PMC11061612
